Tested on: THRa:RXRa (NR concentration 90 nM, RXRa partner concentration 90 nM)
protocol text: PBM binding z-score (relative to random genomic background probes); higher = stronger binding; sequences stand for … in GC…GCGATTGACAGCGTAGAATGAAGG
Items are presented alongside their recorded PBM binding z-score.
When you answer, write just the number.

Worked set:
residues: CCTACTGGGCCAAGGTCATTGAACAGTCAAAGCA
PBM binding z-score: 3.5

residues: TCGAGTAGGTTAGGGGCATTTAGAATGGCGTCGA
PBM binding z-score: 0.793

residues: CCGACTGGGGCACAAGGTTACCATAAGCCAGCCC
PBM binding z-score: 1.37

residues: CCTTTTAGTTGACCATAAGGGCAACCGAAGCTCG
PBM binding z-score: 1.8

residues: CCTATTAGTTGACCGTAAGGGCAACCGAAGCTCG
PBM binding z-score: 2.29

residues: CCGACTGGGGCGGAAAGGTTACCATACCATCCGG
PBM binding z-score: 1

residues: TAGCCTAGGTCATTGGGTCAGTATAGTACGCATC
PBM binding z-score: 3.25

residues: CCTCGGAGGACAGAAGGTCCGAGCTGTCCGCTTT
PBM binding z-score: -0.359

# query: PBM binding z-score | item TCTGGGAGGACACGAAGGTCAGAGCTTTCCAGAG | system: THRa:RXRa (NR concentration 90 nM, RXRa partner concentration 90 nM)
2.9

# query: PBM binding z-score | item TCGAGTAGGTTAGGGGCATTCCGAATGGCGTCGA | system: THRa:RXRa (NR concentration 90 nM, RXRa partner concentration 90 nM)
0.556

# query: PBM binding z-score | item ATCTCTAGGTAAGACTGAGTTCAGTGAAGAACGC | system: THRa:RXRa (NR concentration 90 nM, RXRa partner concentration 90 nM)
1.25

# query: PBM binding z-score | item ATATGTAGGTTAGCTGGGGTCATCCAGACTAGGC | system: THRa:RXRa (NR concentration 90 nM, RXRa partner concentration 90 nM)
5.2

From: the supplement of paper PMC6555819
